Source listed as paper PMC11204085.

- tested_system: AgifCSP5 (Aphidius gifuensis)
- Sequence (A0A3Q9ELG9 entry or part of it): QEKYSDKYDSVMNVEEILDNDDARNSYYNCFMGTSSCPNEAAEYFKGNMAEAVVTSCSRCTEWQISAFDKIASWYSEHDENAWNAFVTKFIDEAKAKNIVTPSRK
recorded_endpoint: Kd
Mention the unit after the number when you answer.

Kd of c1ccc(Nc2cccc3ccccc23)cc1 [1-NPN, N-phenyl-1-naphthylamine, reference compound] , assay on AgifCSP5 (Aphidius gifuensis), is 3.64 µM

* * *

- tested_system: Y75A mutant of AgifCSP5 (Aphidius gifuensis, UniProt A0A3Q9ELG9, Y95A)
- Sequence (A0A3Q9ELG9 entry or part of it Y95A): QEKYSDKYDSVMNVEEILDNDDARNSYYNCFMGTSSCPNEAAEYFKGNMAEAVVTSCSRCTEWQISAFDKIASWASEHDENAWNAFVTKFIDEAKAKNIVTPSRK
- measurement_notes: Fluorescence competitive binding assay, Y75A mutant
- condition_notes: Y75A mutant; read-out: IC50
recorded_endpoint: IC50 (µM)
# output: bare number, implied unit µM

// recorded IC50 for C=C/C(C)=C\CC=C(C)C [(Z)-β-ocimene] : 30.8

* * *

- tested_system: R24A mutant of AgifCSP5 (Aphidius gifuensis, UniProt A0A3Q9ELG9, R44A)
- Sequence (A0A3Q9ELG9 entry or part of it R44A): as the sequence (A0A3Q9ELG9 entry or part of it Y95A) above, with R24A, A75Y counted along it
- measurement_notes: Fluorescence competitive binding assay, R24A mutant
recorded_endpoint: pKi
pKi here is simply -log10 of the concentration when that concentration is written in mol/L.

compound	pKi
C=C1CCC2(C(C)C)CC12 (stereo not drawn)	4.69
CCCC/C=C\CCO [cis-3-Octen-1-ol]	4.76
CCC/C=C/C=O [trans-2-Hexen-1-al]	4.86
O=Cc1ccccc1	4.80
CCCCCC/C=C/C=O [trans-2-Nonenal]	4.62

Kindly review the next compound as well.
Reading of pKi for CC/C=C\CC1C(=O)CCC1CC(=O)OC (stereo not drawn) [Methyl jasmonate] with R24A mutant of AgifCSP5 (Aphidius gifuensis, UniProt A0A3Q9ELG9, R44A): 5.09
